- System: LG0703-F498-PDC complex spheroid growth;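 also: luminescence taken as a proxy for viable cell amount; percent of DMSO vehicle control where 100% means growth equal to vehicle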
- procedure_details: Anticancer human tumor LG0703-F498-PDC patient-derived lung adenocarcinoma cell line growth inhibition [AhR]
- test_parameters: second compound 0.1 µM; first compound 0.00949 µM; hits give low values
- Excerpt: Multicellular complex tumor spheroid response to aryl hydrocarbon receptor antagonists in combination with a variety of drugs and investigational agents in selected tumor cell lines […] Compounds. […] If the clinical Cmax for an agent had not been determined, the highest concentration tested was 10 microM (Table 1). […]
Reported viability, T/C values follow for various compounds
Could you give me the number in %? Just the number is fine.

compound="CCc1c2c(nc3ccc(O)cc13)-c1cc3c(c(=O)n1C2)COC(=O)[C@]3(O)CC + Cc1ccccc1N=Nc1ccc(NC(=O)c2ccnn2C)c(C)c1" data_value=77.1
compound="CC(C)CC(NC(=O)C(Cc1ccccc1)NC(=O)c1cnccn1)B(O)O (stereo not drawn) + CC(CO)NC(=O)c1cc(-c2ccc(Cl)cc2)nn(-c2cnn(C)c2)c1=O" data_value=1.95

Next compound, please.
Reported viability, T/C for Nc1ncn(C2CC(O)C(CO)S2)c(=O)n1 (stereo not drawn) + CC(CO)NC(=O)c1cc(-c2ccc(Cl)cc2)nn(-c2cnn(C)c2)c1=O was 95.6
